The origin of these recorded values is patent CN113234145A.

target: SARS-CoV-2病毒N蛋白(全长) (SARS-CoV-2, UniProt P0DTC9 1-419)
experimental readout: EC50 (ng/mL)
Report the figure in ng/mL without appending any unit label.

Per the record, nCoV402 (antibody, V domains shown) VH: QVQLVESGGGVVQPGGSLRLSCAASGFTFSRFTMHWVRQAPGKGLEWVAIISFNGSDKLYVDSVKGRFTVSRDSSKEMLYLQMSSLRHEDTAVYYCARETEDYTSSYFDYWGQGTLVTVSS VL: QLVLTQSPSASASLGASVKLTCTLSSGHNNYAIAWHQQQPQTGPRFLMKVNSDGSHVKGDGIPDRFTGSSSGTGRYLTISSLQSEDEADYYCQTWASGIQVFGGGTKLTVL has EC50 of 6.3
